Reported recombinant barcode read abundance (log10) values follow for various sequences
assay: recombinant barcode read abundance after kanamycin selection (control-corrected) (log10(CPM+1)); higher = more efficient recombination; sequences stand for … in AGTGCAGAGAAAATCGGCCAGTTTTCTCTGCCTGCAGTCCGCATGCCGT…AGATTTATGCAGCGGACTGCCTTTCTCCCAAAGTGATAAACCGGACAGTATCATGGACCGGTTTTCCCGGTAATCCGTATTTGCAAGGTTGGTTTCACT; site = the 11-nt target;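 also: IS621 recombinase and bridge RNA in Escherichia coli cells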

Examples with their reported recombinant barcode read abundance (log10) follow.
| ITEM_SEQUENCE | MEASURED_VALUE |
| --- | --- |
| AGGTGTGCTTGGGTTCTAACCTGTTGCCT (site AGGTTTGCTAG) | 0.502 |
| AGGTCTGCTTGGGTTCTAACCTGTTGCCT (site AGGTCTGCTAG) | 0.58 |

Lab note: TGGGACTCTTGGGTTCTAACCTGTTGCCA (site TCGGACACTTG) gave recombinant barcode read abundance (log10) of 0.328

Consider ACTGATACTTGGGTTCTAACCTGTTGCCT (site ACTGATCCTAG) . Its measured recombinant barcode read abundance (log10) is 0.0466

Entry GGACAATCTTGGGTTCTAACCTGTTGCCT (site GGACGATCTAG) — recorded recombinant barcode read abundance (log10) = 0.376

Lab note: TGGCCCTCTTGGGTTCTAACCTGTTGCTG (site TGGCCCTCTGA) gave recombinant barcode read abundance (log10) of 0.0444

Just so you know, measured recombinant barcode read abundance (log10) for AGGTCACCTTGGGTTCTAACCTGTTGCTT (site AGGTCACCTAG) came out at 0.914

# sequence GGAATGTCTTGGGTTCTAACCTGTTGCCT (site GTAATGTCTAG) ; its recombinant barcode read abundance (log10) = 0.0368

Memo: TCCATCCCTTGGGTTCTAACCTGTTGCCT (site TCGATCCCTAG) , reported recombinant barcode read abundance (log10): 0.0154

According to the records, this sequence TAGCCGGCTTGGGTTCTAACCTGTTGCCT (site TAGCCGGCTAG) displays recombinant barcode read abundance (log10) of 0.907
